biological target: SlitOBP1 Trp37 (tryptophan to alanine) (Spodoptera litura, UniProt A1Z1R1, W56A); assay: Fluorescence binding assay with 1-NPN, mutant SlitOBP1 Trp37
Sequence (A1Z1R1 20-164 W56A): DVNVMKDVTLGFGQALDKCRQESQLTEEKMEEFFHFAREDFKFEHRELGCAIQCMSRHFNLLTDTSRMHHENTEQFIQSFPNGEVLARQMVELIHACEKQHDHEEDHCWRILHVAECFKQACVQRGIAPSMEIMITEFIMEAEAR
property_label: Kd (µM)
Unit µM implied. Number only.

**Q:** Need Kd of c1ccc(Nc2cccc3ccccc23)cc1 [1-NPN, N-phenyl-1-naphthylamine, reference compound] , thanks.
**A:** 4.54

====

Item-by-item account of Ki
target: SlitOBP1 (Spodoptera litura); assay: Fluorescence competitive binding assay with 1-NPN, recombinant SlitOBP1
Sequence (A1Z1R1 20-164): as the sequence (A1Z1R1 20-164 W56A) above, with A37W counted along it
Give the number; µM is assumed, so skip it.

**Q:** Hi! What's the reported Ki for N[C@@H](Cc1ccc(O)cc1)C(=O)OCc1ccccc1 on SlitOBP1 (Spodoptera litura)?
**A:** 4.47

**Q:** Then C[C@]12C=CC(=O)C=C1CC[C@@H]1[C@@H]2[C@@H](O)C[C@@]2(C)[C@H]1CC[C@]2(O)C(=O)CO [50-24-8, reference compound] ?
**A:** 3.1

**Q:** One more molecule: NCC(=O)NC(Cc1ccc(O)cc1)C(=O)NCC(=O)O (centres unmarked)
**A:** 3.78

**Q:** Please give the result for CC(=O)[C@@]12O[C@@H]1C[C@H]1[C@@H]3CC=C4C[C@@H](O)CC[C@]4(C)[C@H]3CC[C@@]12C too.
**A:** 5.12

**Q:** Next up: C[C@]12C=CC(=O)C=C1CC[C@@H]1[C@@H]2C(=O)C[C@@]2(C)[C@H]1CC[C@]2(O)C(=O)CO [53-03-2, 1,2-Dehydrocortisone, reference compound]
**A:** 3.09

**Q:** Request: OCC(F)(F)C(F)(F)C(F)(F)C(F)(F)C(F)(F)C(F)(F)C(F)(F)C(F)(F)CO [754-96-1, 1H,1H,10H,10H-perfluoro-1,10-decanediol]
**A:** 4.13

**Q:** Again, but for OCC(F)(F)C(F)(F)C(F)(F)C(F)(F)C(F)(F)C(F)(F)C(F)(F)CO
**A:** 5.84

**Q:** Follow-up item: NC(=O)[C@@H]1CCCN1C(=O)[C@H](Cc1cnc[nH]1)NC(=O)[C@@H]1CCC(=O)N1
**A:** 4.44

**Q:** Another molecule to check: CC[C@H](C)[C@H](NC(=O)[C@@H](N)CCCCN)C(=O)O
**A:** 4.65

**Q:** What do you get for O=C(O)C(F)(F)C(F)(F)C(F)(F)C(F)(F)C(F)(F)C(F)(F)C(F)(F)C(F)(F)F ?
**A:** 3.76

**Q:** // same read-out, input: OCCC(F)(F)C(F)(F)C(F)(F)C(F)(F)C(F)(F)C(F)(F)C(F)(F)C(F)(F)F
**A:** 3.69

**Q:** Try CC(=O)[C@H]1CC[C@H]2[C@@H]3CC=C4C[C@@H](O)CC[C@]4(C)[C@H]3CC[C@]12C next.
**A:** 9.13

**Q:** Input CC(C)(C)OC(=O)C[C@H](NC(=O)OCc1ccccc1)C(=O)O
**A:** 4.14

**Q:** // query: O=C(O)C(F)(F)C(F)(F)C(F)(F)C(F)(F)C(F)(F)C(F)(F)C(F)(F)C(F)(F)Cl
**A:** 3.73

====

target: SlitOBP1 (Spodoptera litura); assay: Fluorescence competitive binding assay with 1-NPN, recombinant SlitOBP1; settings: 2 μM SlitOBP1, 2 μM 1-NPN, ligand 0-20 μM; unit inferred
Binary call on IC50 with cut-off 7 µM: strictly below means rule met, and equality or higher means rule not met.

# count of solved cases: 3
{"columns": ["compound", "group_label"],
 "data": [
  ["OCC(F)(F)C(F)(F)C(F)(F)C(F)(F)C(F)(F)C(F)(F)C(F)(F)CO [203303-01-9, 1H,1H,9H,9H-perfluoro-1,9-nonanediol]", "rule not met"],
  ["CC[C@H](C)[C@H](NC(=O)[C@@H](N)CCCCN)C(=O)O [20556-13-2, H-Lys-Ile-OH]", "rule not met"],
  ["OCCC(F)(F)C(F)(F)C(F)(F)C(F)(F)C(F)(F)C(F)(F)C(F)(F)C(F)(F)F [678-39-7, 1H,1H,2H,2H-perfluoro-1-decanol]", "rule met"]
]}

**Q:** Here's an entry: N[C@@H](Cc1ccc(O)cc1)C(=O)OCc1ccccc1 [42406-77-9, L-Tyrosine benzyl ester] . Is its IC50 below 7 µM?
**A:** rule not met
